target: recombinant human DPP7 (Homo sapiens); construct: purchased R&D Systems; test: DPP7 inhibition, fluorogenic substrate Lys-Pro-AMC; format: biochemical
observation_type: IC50 (µM)
Field: numeric (µM). Do not append units.

Here is how some molecules turned out for IC50.
CN(c1cnc2ccccc2c1)[C@@H]1CCN(CC(=O)N2CCC[C@H]2C#N)C1 [Example 138] :: 3.7
N#C[C@@H]1CCCN1C(=O)CN1CC[C@H](Nc2cncc3ccoc23)C1 [Example 23] :: 0.951
COc1ccc2nccc(O[C@H]3CCN(CC(=O)N4CCC[C@H]4C#N)C3)c2c1 [Example 84] :: 9.46

Turning now to a further record.
Query string: Query (molecule): CN(c1cnc2ccccc2c1)[C@H]1CCN(CC(=O)N2CCC[C@H]2C#N)C1 [Example 142] ; field requested: IC50
Result string: 4.99
